# ASSAYED_SYSTEM: human P2X4 (Homo sapiens, UniProt Q99571)
# Sequence (Q99571 1-388): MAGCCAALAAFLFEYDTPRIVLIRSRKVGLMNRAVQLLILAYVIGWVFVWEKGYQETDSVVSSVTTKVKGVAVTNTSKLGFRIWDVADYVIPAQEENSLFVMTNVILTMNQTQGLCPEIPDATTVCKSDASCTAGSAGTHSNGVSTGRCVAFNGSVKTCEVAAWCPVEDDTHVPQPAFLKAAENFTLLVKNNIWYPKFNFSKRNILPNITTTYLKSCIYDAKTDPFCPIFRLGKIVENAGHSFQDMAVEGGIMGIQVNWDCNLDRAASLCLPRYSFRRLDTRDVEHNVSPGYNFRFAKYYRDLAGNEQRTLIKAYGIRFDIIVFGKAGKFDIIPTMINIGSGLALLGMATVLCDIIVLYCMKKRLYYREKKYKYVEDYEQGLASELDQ
# EXPERIMENT_NOTES: Human P2X4 HEK Cell FLIPR Assay
# Format: cell-based
# REPORTED_CONDITIONS: HEK293, HEK293 cells, agonist Bz-ATP at EC80; percentage of maximal inhibition; read-out: Human P2X4 HEK Cells (FLIPR Assay) avg Efficacy [%]
# Procedure: HEK293 cells stably expressing human P2X4 were plated in poly-D-lysine-coated 384-well plates at a seeding density of 30000 cells/well and incubated overnight. P2X4 function was assessed by measuring intracellular calcium changes using the calcium-chelating dye Fluo8-AM (Molecular Devices) on a fluorescent imaging plate reader (FLEX/FLIPR station; Molecular Devices). […] The EC80 value of Bz-ATP was determined each assay day prior to compound profiling. […]
PROPERTY: Emax (%)
The figure you give is taken to be in %; do not add the unit.

What Emax value was documented for this molecule, CC(C)(C)n1cc(-c2ccc(NC(=O)Cc3ccccc3F)cc2S(N)(=O)=O)cn1 ?
105

What Emax value was documented for this molecule, CC(C)Cn1cc(-c2ccc(NC(=O)Cc3ccccc3Cl)cc2S(N)(=O)=O)cn1 ?
94

What Emax value was documented for this molecule, N#Cc1cnn(-c2ccc(NC(=O)Cc3c(Cl)cccc3Cl)cc2S(N)(=O)=O)c1 ?
84

What Emax value was documented for this molecule, NS(=O)(=O)c1cc(NC(=O)Cc2ccccc2C(F)(F)F)ccc1-n1cc(Cl)cn1 ?
96

What Emax value was documented for this molecule, NS(=O)(=O)c1cc(NC(=O)Cc2cc(F)cc(F)c2)ccc1-n1cc(F)cn1 ?
66

What Emax value was documented for this molecule, NS(=O)(=O)c1cc(NC(=O)Cc2ccccc2Cl)ccc1-c1nc(C(F)(F)F)no1 ?
52

What Emax value was documented for this molecule, NS(=O)(=O)c1cc(NC(=O)Cc2ccccc2Cl)ccc1-n1cc(NC(=O)C2CC2)cn1 ?
88

What Emax value was documented for this molecule, NS(=O)(=O)c1cc(NC(=O)Cc2ccccc2Cl)ccc1-c1nnc(C(F)F)o1 ?
87

What Emax value was documented for this molecule, NS(=O)(=O)c1cc(NC(=O)Cc2ccccc2F)ccc1-n1ncc(C(F)(F)F)n1 ?
68

What Emax value was documented for this molecule, NS(=O)(=O)c1cc(NC(=O)Cc2ccccc2OC(F)F)ccc1-n1cnc(C(F)(F)F)n1 ?
71

What Emax value was documented for this molecule, NS(=O)(=O)c1cc(NC(=O)Cc2ccccc2Cl)cnc1-c1cnn(C(F)F)c1 ?
87

What Emax value was documented for this molecule, NS(=O)(=O)c1cc(NC(=O)Cc2ccccc2Cl)ccc1-c1ccsn1 ?
89

What Emax value was documented for this molecule, CC(C)(O)c1cc(F)cc(-c2ccc(NC(=O)Cc3ccccc3Cl)cc2S(N)(=O)=O)c1 ?
89

What Emax value was documented for this molecule, COc1ncc(-c2ccc(NC(=O)Cc3ccccc3Cl)cc2S(N)(=O)=O)s1 ?
90

What Emax value was documented for this molecule, Cc1ccn(-c2ccc(NC(=O)Cc3ccccc3Cl)cc2S(N)(=O)=O)n1 ?
60

What Emax value was documented for this molecule, NS(=O)(=O)c1cc(NC(=O)Cc2cccc(F)c2F)ccc1-n1cc(Cl)cn1 ?
82

What Emax value was documented for this molecule, Cc1noc(C)c1-c1ccc(NC(=O)Cc2ccccc2Cl)cc1S(N)(=O)=O ?
82
